Experiment: Half life in human HepG2 cells by HPLC analysis
Format: ADME, cell-based
attribute measured: half-life

Suppose we examine the compound COc1ccc(CNc2c(-c3cc(Cl)ccn3)nc3ccc(Cl)cn23)cc1 ; what half-life value has been reported?
1.5 to 2 h

----------
Molecular target: Bile acid receptor (Homo sapiens) (UniProt Q96RI1)
Sequence (whole entry): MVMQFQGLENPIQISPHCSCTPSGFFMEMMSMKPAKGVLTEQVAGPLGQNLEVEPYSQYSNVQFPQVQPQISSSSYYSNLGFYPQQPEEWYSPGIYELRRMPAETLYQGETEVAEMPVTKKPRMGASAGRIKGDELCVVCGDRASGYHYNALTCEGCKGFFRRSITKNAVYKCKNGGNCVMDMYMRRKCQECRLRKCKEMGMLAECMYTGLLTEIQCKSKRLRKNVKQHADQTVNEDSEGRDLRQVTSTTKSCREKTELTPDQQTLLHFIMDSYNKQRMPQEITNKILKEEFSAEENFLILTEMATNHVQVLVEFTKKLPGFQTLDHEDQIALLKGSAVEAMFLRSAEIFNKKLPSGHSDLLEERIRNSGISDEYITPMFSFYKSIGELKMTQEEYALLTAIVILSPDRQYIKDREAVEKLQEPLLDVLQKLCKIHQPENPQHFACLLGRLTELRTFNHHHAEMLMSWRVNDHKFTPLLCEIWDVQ
Experiment: Transactivation of human FXR expressed in human HeLa cells co-expressing BSEP at 3 uM after 24 hrs by dual-glo luciferase reporter gene assay relative to GW4064
Type: cell-based
attribute measured: max activation

Consider the following illustrative entries.
1) COc1ccc(-c2nc3ccc(C)cn3c2NCc2ccccc2)cc1: 16%
2) COc1ccc2nc(-c3cccs3)c(NCc3ccccc3)n2c1: 18%
3) Cc1ccc2nc(-c3cc(Cl)ccn3)c(NCc3ccccc3)n2c1: 27%
4) Cc1ccc2nc(-c3ccc(Cl)c(Cl)c3)c(NCc3ccccc3)n2c1: 19%
5) Cc1ccc2nc(-c3ccc(F)c(Cl)c3)c(NCc3ccccc3)n2c1: 54%

Fill in: max activation of COc1ccc(CNc2c(-c3cc(Cl)ccn3)nc3ccc(Cl)cn23)cc1 is ___
23%

Give the measured max activation of Cc1ccc2nc(-c3cccc(Cl)n3)c(NCc3ccccc3)n2c1 .
31%

Give its max activation value. Item: Cc1ccc2nc(-c3ccccn3)c(NCc3ccccc3)n2c1
19%

----------
Molecular target: UniProtKB Q96RI1
Assay: Transactivation of human FXR expressed in human HeLa cells co-expressing BSEP after 24 hrs by dual-glo luciferase reporter gene assay
Assay type: cell-based
Conditions: read-out: EC50
Overview of recorded pEC50 for various compounds
Note on pEC50: it is the negative log10 of concentration, concentration in mol/L.

Record request: pEC50 value, item Cc1ccc2nc(-c3cccs3)c(Cc3ccccc3)n2c1
6.09

# query: pEC50 of entry Cc1ccc2nc(-c3cccs3)c(NCc3ccccc3)n2c1
6.27

----------
Molecular target: Bile acid receptor (Homo sapiens) (UniProt Q96RI1)
Sequence (whole entry): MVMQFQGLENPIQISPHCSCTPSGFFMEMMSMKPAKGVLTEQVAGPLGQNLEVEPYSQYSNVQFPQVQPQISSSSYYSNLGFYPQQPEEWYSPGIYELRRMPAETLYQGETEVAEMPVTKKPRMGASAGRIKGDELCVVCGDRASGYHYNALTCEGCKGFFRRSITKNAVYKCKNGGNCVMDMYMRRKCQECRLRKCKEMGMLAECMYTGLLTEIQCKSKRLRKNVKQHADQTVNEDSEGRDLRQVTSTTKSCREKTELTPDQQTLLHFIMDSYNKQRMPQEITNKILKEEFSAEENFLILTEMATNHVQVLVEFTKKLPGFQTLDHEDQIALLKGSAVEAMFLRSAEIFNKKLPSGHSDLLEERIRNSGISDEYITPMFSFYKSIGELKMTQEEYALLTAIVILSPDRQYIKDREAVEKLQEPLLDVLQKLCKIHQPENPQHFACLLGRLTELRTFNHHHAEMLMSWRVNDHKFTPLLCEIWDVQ
Assay: Transactivation of human FXR expressed in human HeLa cells co-expressing BSEP at 3 uM after 24 hrs by dual-glo luciferase reporter gene assay relative to GW4064
Assay type: cell-based
Active and inactive are the calls of the source. The calls are words filed in the database; no cut-off is given here.
attribute measured: max activation

A selection of reference data follows.
1) FC(F)(F)c1ccc2nc(-c3cccs3)c(NCc3ccccc3)n2c1: 14%
2) Cc1cccc(-c2nc3ccc(C)cn3c2NCc2ccccc2)c1: 14%
3) Cc1ccc2nc(Cc3ccccc3)c(NCc3ccccc3)n2c1: inactive
4) Cc1ccc2nc(-c3ccsc3)c(NCc3ccccc3)n2c1: 17%
5) Cc1ccc2nc(-c3cccn3C)c(NCc3ccccc3)n2c1: 17%
6) Cc1ccc2nc(-c3ccc(Br)cc3)c(NCc3ccccc3)n2c1: 14%
7) Cc1ccc2nc(-c3ccc4ccccc4c3)c(NCc3ccccc3)n2c1: 18%
8) Cc1ccc2nc(-c3ccc4c(c3)OCCO4)c(NCc3ccccc3)n2c1: 15%
9) Cc1ccc2nc(CCc3ccccc3)c(NCc3ccccc3)n2c1: 12%
10) Cc1ccc2nc(-c3ccccc3C)c(NCc3ccccc3)n2c1: 35%

// moving on: another record for max activation
Request - read-out max activation | tested on Bile acid receptor (Homo sapiens) (UniProt Q96RI1) | compound Brc1ccc2nc(-c3cccs3)c(NCc3ccccc3)n2c1
14%
